Values from patent US20230295330A1

Recorded measurements of EC50, one per entry
Molecular target: T1, human CD228 (R&D Systems Custom02; Lot DCWR021505A) (human, UniProt P08582 20-709, limits assumed)
T1 construct: Bought custom protein coated on ELISA plates; also called CD228 protein; melanotransferrin
T1 sequence (looked up): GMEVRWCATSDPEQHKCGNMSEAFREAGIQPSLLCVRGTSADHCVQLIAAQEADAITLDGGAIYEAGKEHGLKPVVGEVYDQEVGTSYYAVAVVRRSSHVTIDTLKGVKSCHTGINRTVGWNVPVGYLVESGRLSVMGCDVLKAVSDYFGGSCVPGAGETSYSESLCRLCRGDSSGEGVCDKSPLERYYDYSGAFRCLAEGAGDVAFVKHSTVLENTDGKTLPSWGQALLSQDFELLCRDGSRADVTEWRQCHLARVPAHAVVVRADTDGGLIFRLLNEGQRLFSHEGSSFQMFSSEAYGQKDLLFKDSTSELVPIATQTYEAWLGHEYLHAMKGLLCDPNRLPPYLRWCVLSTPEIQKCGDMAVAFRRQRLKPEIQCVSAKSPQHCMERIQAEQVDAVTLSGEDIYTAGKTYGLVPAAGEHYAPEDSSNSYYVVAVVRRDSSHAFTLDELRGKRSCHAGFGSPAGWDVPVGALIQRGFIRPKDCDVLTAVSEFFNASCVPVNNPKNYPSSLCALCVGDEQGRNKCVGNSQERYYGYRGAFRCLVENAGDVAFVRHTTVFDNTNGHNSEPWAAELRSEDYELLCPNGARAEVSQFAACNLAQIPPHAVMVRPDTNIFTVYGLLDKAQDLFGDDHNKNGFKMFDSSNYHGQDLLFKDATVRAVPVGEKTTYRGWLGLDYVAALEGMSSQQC
Test: ELISA, coated human CD228, pH 7.40
Field: numeric (nM). Do not append units.

(Q) Return value of EC50 for input hL49_3X_Gln (antibody, V domains shown, hL49 triple mutant: all three light chain CDR histidines changed to glutamine; also called 3X-Gin) VH: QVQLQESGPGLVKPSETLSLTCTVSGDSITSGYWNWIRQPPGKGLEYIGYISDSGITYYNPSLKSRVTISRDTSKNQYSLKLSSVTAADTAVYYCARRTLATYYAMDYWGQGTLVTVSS VL: DFVMTQSPLSLPVTLGQPASISCRASQSLVQSDGNTYLQWYQQRPGQSPRLLIYRVSNRFSGVPDRFSGSGSGTDFTLKISRVEAEDVGVYYCSQSTQVPPTFGQGTKLEIK , no commentary.
(A) 14.6

(Q) Determine from records and report EC50 for hL49_27D_Tyr (antibody, V domains shown, hL49 variant with the light chain CDR-L1 histidine 27D changed to tyrosine) VH: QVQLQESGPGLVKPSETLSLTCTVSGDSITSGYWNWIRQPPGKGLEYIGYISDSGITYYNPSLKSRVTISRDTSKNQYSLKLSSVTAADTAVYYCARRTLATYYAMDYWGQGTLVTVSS VL: DFVMTQSPLSLPVTLGQPASISCRASQSLVYSDGNTYLHWYQQRPGQSPRLLIYRVSNRFSGVPDRFSGSGSGTDFTLKISRVEAEDVGVYYCSQSTHVPPTFGQGTKLEIK
(A) 0.72

(Q) Give the measured EC50 for hL49_27D_Ala (antibody, V domains shown, hL49 variant with the light chain CDR-L1 histidine 27D changed to alanine) VH: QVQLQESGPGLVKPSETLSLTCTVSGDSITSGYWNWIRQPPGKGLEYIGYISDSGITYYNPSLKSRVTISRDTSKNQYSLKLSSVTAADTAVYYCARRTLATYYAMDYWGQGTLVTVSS VL: DFVMTQSPLSLPVTLGQPASISCRASQSLVASDGNTYLHWYQQRPGQSPRLLIYRVSNRFSGVPDRFSGSGSGTDFTLKISRVEAEDVGVYYCSQSTHVPPTFGQGTKLEIK
(A) 0.55
